Some binders, each annotated with its measured IC50, RGA 2.
Biological target: T1, murine IL-11 (mouse, UniProt P47873 22-199)
T1 sequence: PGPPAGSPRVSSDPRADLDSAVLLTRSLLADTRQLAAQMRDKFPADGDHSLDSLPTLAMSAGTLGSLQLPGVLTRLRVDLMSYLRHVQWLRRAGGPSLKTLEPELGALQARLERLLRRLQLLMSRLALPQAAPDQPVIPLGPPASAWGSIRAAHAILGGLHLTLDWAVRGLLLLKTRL
Assay: cell-based or functional assay
Parameter measured: IC50, RGA 2 (nM)

| Binder | Parameter measured | Measured value |
| --- | --- | --- |
| TPP-31307 (antibody, IgG4, V domains shown) VH: EVQLLESGGGLVQPGGSLRLSCAASGFTFSHYDMNWLRQAPGKGLEWVGVISYDASNKFYADFVKGRFTISRDNSKNTLYLQMNSLRAEDTAVYYCARTPGSHFDYWGQGTLVTVSS VL: QSVLTQPPSASGTPGQRVTISCSGSSSNIGNNAVNWYQQLPGTAPKLLIYYDDLLPSGVPDRFSGSKSGTSASLAISGLRSEDEADYYCSAWDDSLNAVVFGGGTKLTVL | IC50, RGA 2 | 37 |
| TPP-31312 (antibody, IgG4, V domains shown, also called WT antibody; chimeric antibody) VH: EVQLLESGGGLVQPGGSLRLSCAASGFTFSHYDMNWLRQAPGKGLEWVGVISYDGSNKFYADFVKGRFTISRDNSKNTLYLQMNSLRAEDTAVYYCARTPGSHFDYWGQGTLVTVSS VL: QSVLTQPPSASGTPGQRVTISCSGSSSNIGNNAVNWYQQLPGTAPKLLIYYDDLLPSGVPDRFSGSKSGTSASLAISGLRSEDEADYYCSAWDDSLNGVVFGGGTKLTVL | IC50, RGA 2 | 20 |
| TPP-31304 (antibody, IgG4, V domains shown) VH: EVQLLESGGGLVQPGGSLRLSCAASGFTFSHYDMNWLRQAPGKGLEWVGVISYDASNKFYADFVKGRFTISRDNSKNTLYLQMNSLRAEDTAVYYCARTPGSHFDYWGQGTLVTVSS VL: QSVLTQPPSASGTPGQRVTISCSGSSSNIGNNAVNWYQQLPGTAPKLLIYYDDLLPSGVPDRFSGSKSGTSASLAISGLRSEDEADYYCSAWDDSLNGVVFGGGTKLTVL | IC50, RGA 2 | 21 |
